Data credit: paper PMC9482650

TESTED_SYSTEM: T1, RHPN1, Q8TCX5
T1 sequence (Q8TCX5 508-602, limits assumed, looked up): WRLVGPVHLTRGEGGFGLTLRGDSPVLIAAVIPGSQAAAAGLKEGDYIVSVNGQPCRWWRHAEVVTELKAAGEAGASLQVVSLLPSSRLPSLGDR
ASSAY_INFO: holdup assay
Parameters: key: below the threshold = too weak to quantify, mostly under pKd 3.1 to 4
TEST_CONDITIONS: plain residues with an end cap or a label only (N-terminal biotin on a linker: ado-ado)
QUANTITY_NAME: pKd

[[record]]
binder = "EVNETDDTKM [KCNJ1, P48048]"
result = "below the threshold"

[[record]]
binder = "VYPNAKVELV [PDLIM4_iso2, P50479;P50479-1]"
result = "below the threshold"

[[record]]
binder = "PRISRSQSEL [CCDC134, Q9H6E4]"
result = "below the threshold"

